Tgt: Epidermal growth factor receptor (Homo sapiens, UniProt P00533)
Sequence (P00533 whole entry): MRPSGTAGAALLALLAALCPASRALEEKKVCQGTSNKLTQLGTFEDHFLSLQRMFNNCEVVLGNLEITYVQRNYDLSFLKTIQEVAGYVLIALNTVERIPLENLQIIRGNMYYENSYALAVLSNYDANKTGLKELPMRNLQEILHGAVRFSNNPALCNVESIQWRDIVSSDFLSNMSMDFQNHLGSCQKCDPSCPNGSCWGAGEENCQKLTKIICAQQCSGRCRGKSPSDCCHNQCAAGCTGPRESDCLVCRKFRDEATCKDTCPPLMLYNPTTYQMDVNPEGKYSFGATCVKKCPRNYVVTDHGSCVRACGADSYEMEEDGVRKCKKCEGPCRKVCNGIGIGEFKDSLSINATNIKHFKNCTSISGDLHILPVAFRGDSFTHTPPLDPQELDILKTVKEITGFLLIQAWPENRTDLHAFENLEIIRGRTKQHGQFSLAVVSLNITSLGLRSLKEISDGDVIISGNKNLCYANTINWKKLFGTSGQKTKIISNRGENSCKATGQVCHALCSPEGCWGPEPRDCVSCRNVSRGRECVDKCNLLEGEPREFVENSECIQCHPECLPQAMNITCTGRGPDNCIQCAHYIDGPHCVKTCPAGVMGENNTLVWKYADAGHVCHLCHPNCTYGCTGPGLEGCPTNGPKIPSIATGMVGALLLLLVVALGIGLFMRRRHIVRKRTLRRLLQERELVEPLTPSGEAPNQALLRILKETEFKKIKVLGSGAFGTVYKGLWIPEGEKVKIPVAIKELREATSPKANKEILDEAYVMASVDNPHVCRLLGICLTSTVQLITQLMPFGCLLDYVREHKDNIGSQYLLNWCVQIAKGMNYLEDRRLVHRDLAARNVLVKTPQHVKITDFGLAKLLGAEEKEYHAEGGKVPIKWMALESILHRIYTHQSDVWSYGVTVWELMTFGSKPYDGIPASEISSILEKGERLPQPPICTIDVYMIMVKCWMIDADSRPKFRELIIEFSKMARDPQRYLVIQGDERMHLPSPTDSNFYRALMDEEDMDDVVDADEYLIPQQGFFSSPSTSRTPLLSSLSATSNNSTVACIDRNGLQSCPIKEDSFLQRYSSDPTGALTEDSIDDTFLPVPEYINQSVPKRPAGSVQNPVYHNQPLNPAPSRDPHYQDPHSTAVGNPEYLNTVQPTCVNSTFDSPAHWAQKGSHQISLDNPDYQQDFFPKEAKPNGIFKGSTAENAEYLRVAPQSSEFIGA
pIC50: −log10 of the molar value.

[
  {
    "Structure": "COc1ccc(C=Nn2c(S)nnc2-c2cnn(-c3ccc(S(C)(=O)=O)cc3)c2C)cc1OC",
    "Tgt": "Epidermal growth factor receptor (Homo sapiens, UniProt P00533)",
    "pIC50": 6.67
  }
]

Cited source: ChEMBL document CHEMBL6103586
